system: IGROV1 ovarian; experiment: NCI-60 one-dose screen, 48 h (100 = growth as untreated, 0 = no growth, -100 = all killed); conditions: 10 µM unless noted
This is part of a sample that, as a whole, favours compounds with a hit. Of some 83,000 tested, about 20% had one in any assay. Active and inactive are the calls of the source. The calls were made as follows: active = growth percent below 10; inactive = the rest.
I'd be grateful if you could share measured growth for these entries.

Fill in reported growth for this entry: CN1C(=O)/C(=C/c2ccc(C(=O)Nc3ncc(Cc4ccc(Cl)cc4)s3)cc2)SC1=S
44.4% (inactive)

Give growth for the following molecule: CC1(C)CC[C@]2(C(=O)O)CC[C@]3(C)C(=CC[C@@H]4[C@@]5(C)C/C(=C/O)C(=O)C(C)(C)[C@@H]5CC[C@]43C)[C@@H]2C1
31.4% (inactive)

Identify growth associated with the molecule N#Cc1cccc(-c2c(-c3ccc4ccccc4c3)oc3ccccc3c2=O)c1
36.5% (inactive)

Quick one: give measured growth for CS(=O)(=O)C1=CN(CCO)C(=O)N2CCCN=C12
102% (inactive)

Return the recorded growth value; entry: CN([O-])c1nc(N(C)[O-])nc(N2CCOCC2)n1.CN([O-])c1nc(N(C)[OH2+])nc(N2CCOCC2)n1.[Fe+3]
112% [100 µM] (inactive)

Complete the entry with growth for CC1=C(Nc2ccc(N3CCN(C)CC3)cc2)C(=O)c2cncnc2C1=O
1.56% (active)

Could you please provide reported growth for Cn1c(O)c(C=NCCN=Cc2c(O)n(C)c(=O)n(C)c2=O)c(=O)n(C)c1=O ? Thanks!
106% (inactive)

Return growth (reported value) for this molecule: CCCCCCCCCCCCCCCCCCOc1ccccc1CC(=O)OCC[N+]1(C)CCCC1
-58% (active)

Note down growth recorded for COc1ccc(-c2nc(/C=C3\SC(=NCc4ccccc4)NC3=O)c3ccccn23)cc1
-44.7% (active)

Please report the measured growth for O=[N+]([O-])c1ccc(-c2nc(N3CCOCC3)c3c4c(sc3n2)CCCC4)cc1
75.2% (inactive)

Write down growth measured for item CCOC(=O)c1cn2ncnc(Oc3ccc(NC(=O)NC4CCCCC4)c(Cl)c3)c2c1C
81.4% (inactive)

Name the recorded growth of the molecule listed here: CNc1nc(S(=O)c2ccc(C#N)cc2)nc2ccccc12 (stereo not given)
86.3% (inactive)

Output measured growth for this item: C=CCn1cc(-c2nc3ccccc3s2)c2cc(-c3ccc4c5c(cccc35)C(=O)N(N)C4=O)ccc21
69.8% (inactive)

Supply growth value. Item: N#Cc1c(NC(=O)c2ccccc2)sc2c1CCC(=O)C2
27.4% (inactive)

Look up growth of CCOC(=O)CSc1ncnc2c1c(-c1ccccc1)c(-c1ccccc1)n2-c1ccc(C)cc1 and report it.
79.9% (inactive)

Report growth, nothing else, for this molecule: OCc1cccc(-c2ccc3ncc(-c4nc(NC5CC5)ncc4F)n3c2)c1
-13.3% (active)

Report growth, nothing else, for this molecule: C#COc1cccc(Nc2ncnc3ncc(NC(=O)CCl)cc23)c1
-42.4% [6.25 µM] (active)

Please supply the value of reported growth for the item Nc1c(C(=O)Nc2ccccc2Cl)sc2nc3c(cc12)C(O)CCC3 (stereo not given)
57.2% (inactive)

Return growth (reported value) for this molecule: CN1CCN(C(=O)c2ccc(NC(=O)Nc3ccc(-c4nc(N5CCOCC5)c5cccn5n4)cc3)cc2)CC1
-29.2% (active)

State its growth for this molecule: S=C(Nc1ccc(-c2nc(N3CCOCC3)c3cccn3n2)cc1)Nc1cccnc1
11% (inactive)

Please indicate growth recorded for COc1ccc(OC)c(-c2c(C#N)c(-c3cccs3)nc3c2c(-c2ccccc2)nn3-c2ccccc2)c1
99.2% (inactive)

Look up and report measured growth for this entry: CCCCNC(=O)Oc1ccc(/C(=C(/CC)Cc2ccccc2)c2ccc(OCCN3CCCCCC3)cc2)cc1
42.3% (inactive)

Answer with the recorded growth of C=CCc1c2c(c(OC)c3ccoc13)C(=O)/C(=C/c1ccccc1OC)O2 only.
54.8% (inactive)

Note growth for the molecule shown: CCCCCOc1ccc(C(=O)/C(Br)=C/C(=O)O)cc1
85.6% (inactive)

Report measured growth; entry is COC(=O)c1cc(-c2ccc(OC)cc2)[nH]c1N/N=C/c1c(Cl)cccc1Cl
29% (inactive)

Look up and report measured growth for this entry: O=C1c2cc(Cl)ccc2S(=O)(=O)c2c(NCCCNCCO)nc3ccccc3c21
8.88% (active)

Name the recorded growth of the item CC(C)(C)n1cc(-c2ccnc(NCCNS(=O)(=O)c3cccc(F)c3)c2)c(-c2ccccc2)n1 in your answer.
97.2% (inactive)

Recall and state the measured growth for O=[N+]([O-])C1C(c2ccccc2)C12c1ccccc1-c1ccccc12 (stereo not given) .
20.5% (inactive)

Name the recorded growth of the item CC(=O)n1nc(C(=O)OC(C)C)c2cc(C)c(C)cc21 in your answer.
106% (inactive)

Indicate its recorded growth; the molecule in question is Cc1cc(=O)[nH]c2c(C#N)cnn12
97.2% (inactive)

Please indicate growth recorded for CNC(=O)c1cc(Oc2ccc3nc(NC(C)=O)sc3c2)ccn1
104% (inactive)

Input CCCCCCCCn1ccc2cc(NC(=O)CN3CCN(c4nc(C)cc(Cl)n4)CC3)ccc21 , output reported growth.
74.4% (inactive)

Specify reported growth for the molecule shown: Clc1ccc2c(c1)N(c1ncnc3ccc(-c4cnc5[nH]ncc5c4)cc13)CC2
0.128% (active)

Check the records and state growth for Cc1cnc(C(=O)NNc2nc3sc4c(c3c(=O)n2C)C(C)CCC4)cn1 (stereo not given)
-18.6% (active)

Give the reported value of growth for this record: CC(C)OC(=O)c1ccc2[nH]c(O)c(C(=Nc3ccc(N(C)C(=O)CN4CCN(C)CC4)cc3)c3ccccc3)c2c1
-39.2% (active)

Identify measured growth associated with COc1ccc(C2=Nc3c/c(=C\c4c(O)[nH]c5ccc(Cl)cc45)ccc3=N2)cc1
75.3% (inactive)

Provide measured growth value, entry: O=C(CSc1nc(-c2ccccc2)[nH]c1S(=O)(=O)c1ccccc1)NC1CC1
107% (inactive)

// fetch growth given entry Cc1ccc2c3c(c(=O)[nH]c2c1)C1(C(C#N)=C(N)O3)c2cc(Br)ccc2-c2ccc(Br)cc21
-13.2% (active)

Answer with reported growth of CC(C)N1CN2C(=S)NC3C2N(C1)C(=S)N3C (stereo not given)
103% (inactive)

Complete the entry with growth for CNC(=O)c1cc(Oc2ccc3c(c2)sc2nc(-c4cc(OC)c(OC)c(OC)c4)cn23)ccn1
72.7% (inactive)
